Origin of values: PubChem BioAssay (NCI)

- Tested on: SNB-75 CNS
- assay: NCI tumour cell line growth inhibition, 48 h
readout_name: TGI

Recorded TGI for "Fc1cccc2c1cc1ccc3cccc4ccc2c1c34" , please?
> 100 µM

Recorded TGI for "O=[N+]([O-])c1c(C=Nc2ccccc2)oc(-c2ccc3c(c2)OCO3)c1-c1ccc2c(c1)OCO2" , please?
> 100 µM

***
Recorded TGI for "COc1ccc2oc(C(=O)O)c3c2c1CCC3" , please?
> 100 µM

---

Please go through the items and note down their TGI.
- Tested on: MOLT-4 leukemia
- assay: NCI tumour cell line growth inhibition, 48 h

Example entries begin here.
Recorded TGI for "C=C(CN1CCN(c2cccc(C(F)(F)F)n2)CC1)c1ccc(C(=S)Nc2ccccc2N)cc1" , please?
6.4 µM

Recorded TGI for "CCOc1ccccc1NC(=O)CCc1n[nH]c(=S)o1" , please?
> 100 µM

Provide the reported TGI of each entry below, same order.
1. CCCCCCCCCCCCCCCCOCC(CCl)OP(=O)(O)OP(=O)(O)OCC1OC(n2ccc(N)nc2=O)C(O)C1O (centres undefined)
2. CN(C)Cc1cc(C=O)cc(CN(C)C)c1O

1: > 100 µM; 2: > 100 µM

---

Please go through the items and note down their TGI.
- System: HL-60(TB) leukemia
- assay: NCI tumour cell line growth inhibition, 48 h

Example entries begin here.
Recorded TGI for "O=c1c2cc([N+](=O)[O-])ccc2nc2n1CCCCC2" , please?
> 100 µM

Recorded TGI for Cc1ccc(C)c2c1CC(Cc1ccccc1C(=O)O)C2=O (stereo unspecified) , please?
> 100 µM

Recorded TGI for "CSCCOC(=O)C(=[N+]=[N-])c1ccc([N+](=O)[O-])cc1" , please?
> 100 µM

Recorded TGI for CCCCCCCCCCCCCCCCOP(=O)(O)OP(=O)(O)OCC1OC(n2ccc(N)nc2=O)C(O)C1O (stereo unspecified) , please?
> 100 µM

Recorded TGI for "CN(C)/C=N/NC(=O)/C(C#N)=C/N(C)C" , please?
> 100 µM

Now, please, on to the next molecule.
Recorded TGI for COc1ccc2[nH]cc(CCNC(=O)[C@](O)(Cc3cn(C)c4ccccc34)[C@@]3(O)OCC(O)C3O)c2c1 (stereo partly specified) , please?
> 100 µM

---

- Test system: LOX IMVI melanoma
- assay: NCI tumour cell line growth inhibition, 48 h
Please go through the items and note down their TGI.

Recorded TGI for "COC(=O)/C=C(/OC)[C@H](C)[C@H](/C=C/c1csc(-c2csc(C(C)C)n2)n1)OC" , please?
5.07 µM

Recorded TGI for "O=S(=O)(Nc1cc(Cl)ccc1Cl)c1ccc(-c2cnc(C3CC3)o2)cc1" , please?
> 100 µM

Recorded TGI for "CN(Cc1ccccc1)C(=NC#N)N(C)Cc1ccccc1" , please?
> 100 µM

Recorded TGI for CC(C)(C)OC(=O)NC1CCC(C(C)(C)C)CC1 (stereo not given) , please?
> 100 µM

Provide the reported TGI of each entry below, same order.
1. Cc1cc(-c2nc3ccc(F)cc3s2)ccc1N
2. CC(=N\N=C\c1ccccn1)/C(C)=N/N=C(C)/C(C)=N/N=C/c1ccccn1
3. COc1cccc(Cc2cc(=O)c3ccc(C)nc3[nH]2)c1

1. > 100 µM
2. > 100 µM
3. > 100 µM

Provide the reported TGI of each entry below, same order.
1. Cc1nn(C)cc1P(=S)(c1ccccc1)c1ccccc1
2. CN1Cc2cc3c(cc2-c2ccccc21)OCO3
3. O=c1[nH]c(=O)n(C2CC(O)C(CO)O2)cc1OCC1CCCCC1 (stereo not given)
4. C=C1C(=O)OC2CC1CCC1(C)OC1CCC(C)=CCCC2(C)O (stereo not given)
5. CCCC(=O)O.CCCC(=O)O.CCCC(=O)O.CCCC(=O)O.[Rh].[Rh]
6. Cc1cc(Oc2ccc3nc(COc4ccc(CC5SC(=O)NC5=O)cc4)n(C)c3c2)cc(C)c1N (stereo not given)
7. O=C(Nc1ccc(Cl)c(Cl)c1)N1N=C2c3ccccc3CCC2C1c1ccc(Cl)cc1 (stereo not given)
8. CCOc1ccc(NC(=O)C2=C(C)NC(C)=C(C(=O)Nc3ccc(OCC)cc3)C2c2ccccc2)cc1

["> 100 µM", "> 100 µM", "> 100 µM", "8.71 µM", "0.225 µM", "> 71.3 µM", "> 100 µM", "> 100 µM"]

Provide the reported TGI of each entry below, same order.
1. COC(=O)C1C2CC3C1C3C2C(=O)OC (stereo not given)
2. COc1ccc(/C(CC2OC(=O)c3ccccc32)=N\NC(=O)C[N+](C)(C)C)cc1 (stereo not given)
3. Cc1ccc2c(=O)cc(-c3ccsc3)[nH]c2n1
4. c1ccc(CN=C(NCc2ccccc2)NCc2ccccc2)cc1
5. CSc1nc(SC)c2ncn(C3CC(Oc4ccc(C)cc4)C(COc4ccc(C)cc4)O3)c2n1 (stereo not given)

1. > 100 µM
2. 65.9 µM
3. > 56.6 µM
4. 19.3 µM
5. > 100 µM
